- protocol: Plasma pharmacokinetics of Z-endoxifen (HPLC assay, non-compartmental analysis)
- Assay type: in vivo, human
- assay setup: human, plasma, po, 20 mg/day, DL1 20 mg/day oral, day 28, mean; read-out: Tmax, Mean
value type: Tmax (min)
Unit min implied. Number only.

Problem: So what's the measured Tmax for this one? CC/C(=C(\c1ccc(O)cc1)c1ccc(OCCNC)cc1)c1ccccc1 [Z-endoxifen]
Result: 42

###

- protocol: Plasma pharmacokinetics of Z-endoxifen (HPLC assay, non-compartmental analysis)
- Type: in vivo, human
- assay setup: human, plasma, po, 60 mg/day, DL3 60 mg/day oral, day 28, mean; read-out: AUC(0-24h), Mean
value type: AUC(0-t)

Problem: Given the entry CC/C(=C(\c1ccc(O)cc1)c1ccc(OCCNC)cc1)c1ccccc1 [Z-endoxifen] , report its measured AUC(0-t).
Result: 8080 ng·h/mL

###

- protocol: Plasma pharmacokinetics of Z-endoxifen (HPLC assay, non-compartmental analysis)
- Type: in vivo, human
- assay setup: human, plasma, po, 60 mg, DL3 60 mg oral, day 1, mean; read-out: C24h, Mean
value type: concentration at 24 h (ng/mL)
Give just the numeric value; ng/mL need not be written.

Problem: For the compound CC/C(=C(\c1ccc(O)cc1)c1ccc(OCCNC)cc1)c1ccccc1 [Z-endoxifen] , what concentration at 24 h is on record?
Result: 82.7

###

- protocol: Plasma pharmacokinetics of Z-endoxifen (HPLC assay, non-compartmental analysis)
- Assay type: in vivo, human
- assay setup: human, plasma, po, 200 mg, DL6 200 mg oral, day 1, mean; read-out: C24h, Mean
value type: concentration at 24 h
Form field: result (number plus unit)

Problem: So what's the measured concentration at 24 h for this one? CC/C(=C(\c1ccc(O)cc1)c1ccc(OCCNC)cc1)c1ccccc1 [Z-endoxifen]
Result: 336 ng/mL

###

- protocol: Plasma pharmacokinetics of Z-endoxifen (HPLC assay, non-compartmental analysis)
- Assay type: in vivo, human
- assay setup: human, plasma, po, 40 mg, DL2 40 mg oral, day 1, mean; read-out: Cmax, Mean
value type: Cmax (ng/mL)
Field: numeric (ng/mL). Do not append units.

Problem: Value lookup for Cmax; key = CC/C(=C(\c1ccc(O)cc1)c1ccc(OCCNC)cc1)c1ccccc1 [Z-endoxifen]
Result: 112

###

- protocol: Plasma pharmacokinetics of Z-endoxifen (HPLC assay, non-compartmental analysis)
- Assay type: in vivo, human
- assay setup: human, plasma, po, 20 mg, DL1 20 mg oral, day 1, individual patients; read-out: Tmax
value type: Tmax (h)
Lab book: enter the figure in h, no units written.

Problem: Returns the measured Tmax for the input compound. Input: CC/C(=C(\c1ccc(O)cc1)c1ccc(OCCNC)cc1)c1ccccc1 [Z-endoxifen]
Result: 3

###

- protocol: Plasma pharmacokinetics of Z-endoxifen (HPLC assay, non-compartmental analysis)
- Type: in vivo, human
- assay setup: human, plasma, po, 40 mg/day, DL2 40 mg/day oral, day 28, individual patients; read-out: Adjusted Half-Life (converted)
- Protocol: This was an open-label trial of Z-endoxifen in patients with advanced solid tumors (https://clinicaltrials.gov/ identifier: NCT01273168). […] Plasma and urine concentrations of Z- and E-endoxifen were measured using a validated, post-column fluorescence derivatization HPLC assay. Non-compartmental pharmacokinetic parameters were calculated using WinNonlin version 7.0 (Pharsight Corp., Mountainview, CA, USA). […] The amount of Z-endoxifen excreted in urine was measured over a 24-hour collection period.
value type: half-life (h)
Write the answer as a number in h, unit excluded.

Problem: For CC/C(=C(\c1ccc(O)cc1)c1ccc(OCCNC)cc1)c1ccccc1 [Z-endoxifen] , what is its reported half-life?
Result: 39.3
